Biological target: Human BAK-∆TM-His6 (BAK) (Homo sapiens, UniProt Q16611)
Construct: C-terminus truncated recombinant human BAK containing C-terminal 6× histidine tag (MEAS-BAK); made in house; host or cells: E. coli T7 Express pLac I/Y
Sequence (Q16611 1-186 limits assumed): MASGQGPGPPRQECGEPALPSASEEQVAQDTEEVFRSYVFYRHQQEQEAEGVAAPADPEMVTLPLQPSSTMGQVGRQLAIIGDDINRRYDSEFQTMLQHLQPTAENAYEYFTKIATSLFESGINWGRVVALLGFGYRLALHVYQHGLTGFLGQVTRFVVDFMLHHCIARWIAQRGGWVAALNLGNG
Experiment: Liposome permeabilization assay (ANTS/DPX dye release from LUVs): activation of WT BAK by BH3 peptides
Type: biochemical
Set-up: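 traces normalized between buffer minimum and 3% CHAPS maximum fluorescence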
Conditions: 50 μM peptide + 50 nM BAK; AUC 0-88 mins of liposome permeabilization; Experiment-1, mean of N replicates
attribute measured: AUC for Experiment-1 (Mean)

In the examples that follow, each entry is paired with its recorded AUC for Experiment-1 (Mean).
Ac-EDIIRNIARHWAQVGDSMDRSI-NH2 [W(2)] : 2.3973
Ac-EDWIRNIARHLAQVGDSMDRSI-NH2 [W(0)] : 13.3871
Ac-EDIIRNIARHLAQMGDSMDRSI-NH2 [M(3)] : 18.852
Ac-EDIIRNIARHLAQWGDSMDRSI-NH2 [W(3)] : 8.5044

1. Ac-EDIWRNIARHLAQVGDSMDRSI-NH2 [W(0')]
2. Ac-EDIIRNIARHLAQYGDSMDRSI-NH2 [Y(3)]
I'm curious whether 1 or 2 has the smaller AUC for Experiment-1 (Mean) number. Which is it? Pick one and reply with its label. 1
(1: 12.2448, 2: 18.672)

a. Ac-EDIIRNIARHMAQVGDSMDRSI-NH2 [M(2)]
b. Ac-EDIIRNIARHLAQVGDSWDRSI-NH2 [W(4)]
I'm curious whether a or b has the smaller AUC for Experiment-1 (Mean) number. Which is it? Pick one and reply with its label. a

Data origin, for the record: paper PMC8752837
